PROTOCOL_DETAILS: Toxicity in po dosed ICR mouse administered as single dose via gavage treated on day 1 and measured daily up to 14 days
Type: organism-based
TEST_CONDITIONS: in vivo
EXPERIMENTAL_ENDPOINT: LD50 at 336 h (mg/kg)

# COMPOUND, EXPERIMENTAL_ENDPOINT, VALUE_COMPARATOR, VALUE_OBSERVED
measured = [
    ("CN(CCOc1ccc(CC2SC(=O)NC2=O)cc1)c1ccccn1 (configuration not stated)", "LD50 at 336 h", "=", 2580),
    ("CCN(CC)/[N+]([O-])=N/OCOC(=O)/C=C/c1ccc(OC(=O)OCN2C(=O)SC(Cc3ccc(OCCN(C)c4ccccn4)cc3)C2=O)c(OC)c1 (configuration not stated)", "LD50 at 336 h", ">", 5000),
]
